- TARGET OF ASSAY: Casein kinase II (Homo sapiens, UniProt P19784+P67870+P68400)
- Sequence (P67870 whole entry): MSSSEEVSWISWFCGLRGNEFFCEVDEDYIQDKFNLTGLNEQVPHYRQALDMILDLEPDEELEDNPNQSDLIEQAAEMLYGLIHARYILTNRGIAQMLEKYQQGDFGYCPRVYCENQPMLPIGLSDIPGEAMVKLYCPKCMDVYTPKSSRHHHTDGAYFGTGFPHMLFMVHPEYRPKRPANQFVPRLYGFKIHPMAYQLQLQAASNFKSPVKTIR
- Sequence (P68400 whole entry): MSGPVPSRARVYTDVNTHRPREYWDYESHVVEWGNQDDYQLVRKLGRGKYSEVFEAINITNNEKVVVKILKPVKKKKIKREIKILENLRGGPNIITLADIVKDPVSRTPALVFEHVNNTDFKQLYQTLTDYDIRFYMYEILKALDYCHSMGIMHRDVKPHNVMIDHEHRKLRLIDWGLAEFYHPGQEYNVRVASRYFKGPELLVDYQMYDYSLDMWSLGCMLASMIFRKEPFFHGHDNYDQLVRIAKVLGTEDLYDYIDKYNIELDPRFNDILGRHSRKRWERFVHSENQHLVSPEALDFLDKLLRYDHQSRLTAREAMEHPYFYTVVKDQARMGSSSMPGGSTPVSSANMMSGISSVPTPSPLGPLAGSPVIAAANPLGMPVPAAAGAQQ
- Sequence (P19784 whole entry): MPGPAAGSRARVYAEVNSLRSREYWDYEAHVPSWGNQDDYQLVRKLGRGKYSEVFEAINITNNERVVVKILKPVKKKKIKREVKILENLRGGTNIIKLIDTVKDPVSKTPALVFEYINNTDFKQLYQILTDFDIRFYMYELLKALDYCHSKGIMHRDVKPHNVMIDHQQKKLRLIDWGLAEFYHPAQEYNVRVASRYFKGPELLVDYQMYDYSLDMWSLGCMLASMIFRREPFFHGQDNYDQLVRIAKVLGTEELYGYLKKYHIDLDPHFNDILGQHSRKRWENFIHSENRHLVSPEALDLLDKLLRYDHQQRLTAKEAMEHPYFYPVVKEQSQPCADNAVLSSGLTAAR
- PROTOCOL NOTES: Inhibition of recombinant human CK2 using RRRDDDSDDD as substrate after 20 mins by beta counting analysis in presence of [gamma-labeled 32P]ATP
- Assay type: protein-complex assay
pIC50: −log10 of the molar value.
Label t when pIC50 >= 6; otherwise f.

Please indicate if the recorded pIC50 for COc1cc(-c2cc(=O)c3cc(Br)ccc3o2)ccc1O meets or exceeds 6. t

Tell me whether pIC50 is at least 6 here: Cc1ccc2oc(-c3ccc(Cl)cc3)c(O)c(=O)c2c1 f

Is pIC50 at least 6? Consider COc1cc(-c2cc(=O)c3cc(C)cc(C)c3o2)cc([N+](=O)[O-])c1O t

Reported pIC50 at or above 6? Cc1cc(C)c2oc(-c3cccc(O)c3)cc(=O)c2c1 f

Quick check: does COc1ccc(-c2cc(=O)c3cc(O)ccc3o2)cc1 have pIC50 greater than or equal to 6? f

Given the entry COc1ccc(-c2cc(=O)c3cc(C)ccc3o2)cc1 , answer whether its pIC50 meets or surpasses 6. f

Is pIC50 for COc1ccc(-c2cc(=O)c3cc(OC(C)=O)ccc3o2)cc1 at or above 6? f

Quick check, pIC50 >= 6? COc1ccc2oc(-c3ccc(O)c(OC)c3)cc(=O)c2c1 t

Identify whether the reported pIC50 of the following compound is 6 or greater: COc1cc(-c2cc(=O)c3cc(Cl)cc(C)c3o2)ccc1O t

State whether the measured pIC50 reaches 6, counting equality as reaching it, for COc1cc(-c2cc(=O)c3ccc(C)c(C)c3o2)ccc1O t

Kindly determine if pIC50 recorded for COc1cc(-c2cc(=O)c3cc(NC(C)=O)ccc3o2)ccc1O is above or exactly 6. t

Check the entry COc1ccc(-c2oc3ccccc3c(=O)c2O)cc1OC [3-HYDROXY-3',4'-DIMETHOXYFLAVONE] : does pIC50 equal or exceed 6? f

Check if pIC50 >= 6 (inclusive). Item: O=c1cc(-c2cccc(Br)c2)oc2ccc(O)cc12 f

pIC50 >= 6 for COc1ccc(-c2cc(=O)c3c(CN(C)Cc4ccccc4)c(O)ccc3o2)cc1 ? f

Confirm if pIC50 reported for the compound COc1cc(-c2cc(=O)c3cc(Br)cc(Br)c3o2)cc(Cl)c1O is 6 or above. t

Determine whether measured pIC50 meets or exceeds 6 for COc1cc(-c2cc(=O)c3cc(C)c(C)cc3o2)ccc1O f

Please check the record COc1cc(-c2cc(=O)c3cc(C)cc(C)c3o2)cc(Br)c1O and state if its pIC50 is at or above 6. t

Hi team, for COc1ccc(-c2cc(=O)c3c4c(ccc3o2)OCN(c2cccc(C(F)(F)F)c2)C4)cc1 , is the recorded pIC50 at or above 6? f

# bool: pIC50 of COc1ccc(-c2oc3ccccc3c(=O)c2OC)cc1OC >= 6 f

hey, is pIC50 for this one >= 6? COc1cc(-c2cc(=O)c3cc(Cl)cc(Cl)c3o2)cc(Cl)c1O t

Would you say CCOc1ccc(-c2oc3ccc(C)cc3c(=O)c2O)cc1 shows pIC50 at minimum 6? f

// inclusive: pIC50 at least 6? input: COc1cc(-c2cc(=O)c3cc(C)cc(C)c3o2)ccc1O t

Dear colleague, could you confirm whether Cc1ccc2oc(-c3ccccc3)c(OCC(=O)N3CCOCC3)c(=O)c2c1 has pIC50 at or above 6? f

###

- TARGET OF ASSAY: Casein kinase II (Homo sapiens) (UniProt P67870+P68400+P19784)
- PROTOCOL NOTES: Inhibition of recombinant human CK2 using RRRDDDSDDD as substrate assessed as residual activity at 10 uM after 20 mins by beta counting analysis in presence of [gamma-labeled 32P]ATP relative to control
- Assay type: protein-complex assay
Field 'label' (enum: Y / N). Set to Y when Activity is strictly under 50%; else N.

Consider the compound COc1ccc(-c2oc3cc(C)cc(C)c3c(=O)c2OC(=O)C2COc3ccccc3O2)cc1 (stereo unspecified) . Is its Activity strictly less than 50%? Y

Please state whether Activity is below 50% for CCOc1cc(-c2cc(=O)c3ccccc3o2)ccc1O Y

Report whether reported Activity is lower than 50% (strictly) for COc1cccc(-c2oc3ccc(C)cc3c(=O)c2O)c1 Y

Input Cc1ccc2oc(-c3ccc(C(C)C)cc3)c(O)c(=O)c2c1 ; condition: Activity strictly below 50%. Does it hold? Y

Problem: For the compound COc1ccc(-c2cc(=O)c3c4c(ccc3o2)OCN(c2cccc(C(F)(F)F)c2)C4)cc1 , is Activity under 50%? Y

API: query returns whether the compound falls strictly under 50% in Activity. Query: COc1ccc(-c2oc3ccccc3c(=O)c2OC(C)=O)cc1 N

Please state whether Activity is below 50% for Cc1ccc(-c2oc3ccc(C)cc3c(=O)c2O)cc1 N

Item COc1cc(-c2cc(=O)c3cc(C)cc(C)c3o2)ccc1O : Activity beneath 50%, strictly? Y

Record COc1ccc(-c2cc(=O)c3cc(OC(C)=O)ccc3o2)cc1 : is its Activity strictly below 50%? N

###

- TARGET OF ASSAY: Mitogen-activated protein kinase kinase kinase 5 (Homo sapiens) (UniProt Q99683)
- Sequence (whole entry): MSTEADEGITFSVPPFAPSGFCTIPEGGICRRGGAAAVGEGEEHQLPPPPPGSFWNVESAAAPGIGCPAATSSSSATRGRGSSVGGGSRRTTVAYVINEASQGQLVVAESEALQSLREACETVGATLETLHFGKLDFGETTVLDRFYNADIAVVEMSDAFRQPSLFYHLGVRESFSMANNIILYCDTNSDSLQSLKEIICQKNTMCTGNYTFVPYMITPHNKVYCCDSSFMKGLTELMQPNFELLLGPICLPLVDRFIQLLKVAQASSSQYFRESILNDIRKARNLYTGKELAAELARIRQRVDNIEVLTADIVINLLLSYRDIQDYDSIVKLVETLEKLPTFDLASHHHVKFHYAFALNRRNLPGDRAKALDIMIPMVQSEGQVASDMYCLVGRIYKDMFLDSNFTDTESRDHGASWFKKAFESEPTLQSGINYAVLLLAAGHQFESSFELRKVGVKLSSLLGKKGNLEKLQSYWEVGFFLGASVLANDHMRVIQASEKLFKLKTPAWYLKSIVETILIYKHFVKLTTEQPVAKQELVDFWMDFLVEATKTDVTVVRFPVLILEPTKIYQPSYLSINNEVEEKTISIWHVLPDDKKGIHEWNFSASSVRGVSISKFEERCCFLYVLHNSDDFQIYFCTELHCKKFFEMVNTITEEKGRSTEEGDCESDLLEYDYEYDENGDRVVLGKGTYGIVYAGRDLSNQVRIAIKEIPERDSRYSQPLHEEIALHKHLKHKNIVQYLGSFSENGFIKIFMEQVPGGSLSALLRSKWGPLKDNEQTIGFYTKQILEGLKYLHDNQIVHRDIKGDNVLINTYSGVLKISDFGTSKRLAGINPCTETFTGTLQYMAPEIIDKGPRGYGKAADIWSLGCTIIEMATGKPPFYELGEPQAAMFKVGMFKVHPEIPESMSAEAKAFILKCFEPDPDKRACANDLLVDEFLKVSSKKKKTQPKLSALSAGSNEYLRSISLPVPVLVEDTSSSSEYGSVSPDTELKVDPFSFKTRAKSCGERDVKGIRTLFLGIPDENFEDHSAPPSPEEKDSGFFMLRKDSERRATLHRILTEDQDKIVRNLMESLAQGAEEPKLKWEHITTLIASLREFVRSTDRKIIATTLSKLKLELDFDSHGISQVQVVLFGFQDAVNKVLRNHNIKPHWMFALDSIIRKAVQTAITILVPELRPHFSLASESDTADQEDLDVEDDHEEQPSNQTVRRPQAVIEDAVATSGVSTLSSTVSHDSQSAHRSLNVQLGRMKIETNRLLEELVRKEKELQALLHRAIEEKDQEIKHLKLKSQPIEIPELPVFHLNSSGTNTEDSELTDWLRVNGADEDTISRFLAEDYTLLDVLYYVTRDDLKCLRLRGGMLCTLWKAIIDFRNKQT
- PROTOCOL NOTES: Inhibition of ASK1 (unknown origin) assessed as residual activity at 10 uM relative to control
Can you tell me Activity for the items I'm about to list?
The reply should be a number in %, with the unit left off.

Using the record for COc1cc(-c2cc(=O)c3cc(Cl)cc(C)c3o2)ccc1O , state its measured Activity. 116

Name the recorded Activity of the item COc1cc(-c2cc(=O)c3cc(Br)cc(Br)c3o2)cc(Cl)c1O in your answer. 124

Give the value of Activity reported for the following: COc1cc(-c2cc(=O)c3cc(Br)cc(Br)c3o2)ccc1O 126

// fetch Activity given entry COc1cc(-c2cc(=O)c3cc(Cl)cc(Cl)c3o2)ccc1O 126
